experiment: Cytotoxicity against LPS-stimulated mouse BV2 cells assessed as cell viability at 20 uM by MTT assay relative to control; assay type: cell-based, BV-2; settings: read-out: Activity
Reported viability at 20 µM by item:
metric name: viability at 20 µM (%)

compound	result number
COc1cc([C@@H]2OC[C@@]3(O)[C@H](c4ccc5c(c4)OCO5)OC[C@@H]23)ccc1O (relative stereo)	108
COc1cc([C@@H](O)[C@H](CO)Oc2c(OC)cc([C@@H]3OC[C@H]4[C@H](c5ccc(O)c(OC)c5)OC[C@@]34O)cc2OC)ccc1O	108
COc1cc([C@@H]2OC[C@@H]3[C@H]2CO[C@H]3c2cc(OC)c(O)c(OC)c2)cc(OC)c1O	110
COc1cc(/C=C/CO)ccc1O[C@H](CO)[C@@H](O)c1cc(OC)c(O)c(OC)c1 (relative stereo)	123
COc1cc(C(OC)[C@H]2CO[C@H](c3ccc(O)c(OC)c3)[C@H]2CO)ccc1O (stereo partly drawn)	115
COc1cc([C@@H](O)[C@@H](CO)Oc2ccc(/C=C/CO)cc2OC)ccc1O (relative stereo)	117
Oc1ccc([C@@H]2OC[C@H]3[C@H](c4ccc5c(c4)OCO5)OC[C@@]23O)cc1	109
COc1cc([C@@H]2OC[C@@H]3[C@H]2CO[C@H]3c2ccc(O)c(OC)c2)ccc1O [(+)-PINORESINOL]	115
